Test system: MCF10A
experiment_notes: 5+ nucleoli phenotype percent effect (relative to siNT 0% and siKIF11 100%); higher = more cells with five or more nucleoli
run_conditions: 20 nM; 72 h

{"columns": ["sequence_entry", "scale_unit", "5+ nucleoli phenotype percent effect"],
 "data": [
  ["AGUGCCUGAGGGAGUAAGAGCCC [hsa-miR-550a-5p]", "%", 12.6],
  ["GCGGAAGGCGGAGCGGCGGA [hsa-miR-6125]", "%", 25.5],
  ["CUUCCGCCCCGCCGGGCGUCG [hsa-miR-718]", "%", 30.6],
  ["UGCUGAUGGCAGAUGUCGGGUCUG [hsa-miR-8075]", "%", -34.6],
  ["UGCGCCUCGGGUGAGCAUG [hsa-miR-668-5p]", "%", 37.3],
  ["AGGGGUGGUGUUGGGACAGCUCCGU [hsa-miR-608]", "%", -9.99],
  ["GAGAGGAACAUGGGCUCAGGACA [hsa-miR-6859-5p]", "%", 41.6],
  ["GGGGCUGGGGCCGGGGCCGAGC [hsa-miR-762]", "%", 53.9],
  ["ACUGUCACUUCUCUGCCCAUAG [hsa-miR-6773-3p]", "%", -17.8],
  ["UCUUACUCCCUCAGGCACUG [hsa-miR-550b-3p]", "%", -5.7],
  ["AAUGAGAGACCUGUACUGUAU [hsa-miR-4712-3p]", "%", -22.6],
  ["UCCCUUCUUCCUGGGCCCUCA [hsa-miR-5088-3p]", "%", 70.3],
  ["UGUUUUGAUAACAGUAAUGU [hsa-miR-2052]", "%", 5.44],
  ["GCAGGCACAGACAGCCCUGGC [hsa-miR-4269]", "%", -29],
  ["AUCAUAGAGGAAAAUCCACGU [hsa-miR-376a-3p]", "%", 51.3],
  ["UACGCGCAGACCACAGGAUGUC [hsa-miR-3939]", "%", 11.7],
  ["UCUGGGCAACAAAGUGAGACCU [hsa-miR-1285-3p]", "%", 2.8],
  ["GGUGGCCCGGCCGUGCCUGAGG [hsa-miR-663b]", "%", 47.3],
  ["AACACACCUGGUUAACCUCUUU [hsa-miR-329]", "%", 4.45],
  ["AAUGGAUUUUUGGAGCAGG [hsa-miR-1246]", "%", -4.08],
  ["UCCGAACUCUCCAUUCCUCUGC [hsa-miR-6716-3p]", "%", 35.3],
  ["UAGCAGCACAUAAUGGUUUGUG [hsa-miR-15a-5p]", "%", -43.7],
  ["CUUAUCAGAUUGUAUUGUAAUU [hsa-miR-374a-3p]", "%", 33],
  ["UACAGUAUAGAUGAUGUACU [hsa-miR-144-3p]", "%", -8.45]
]}
